Structures can show the parent of a compound that is named as a salt.
melting point values by entry
experimental-readout: melting point

COc1cc2c(cc1OC)CN(CCOc1ccc(-c3cccc(N)n3)c3ccccc13)CC2 (as salt: hydrochloride) = 130 to 150 °C
COc1cc2c(cc1OC)CN(CCc1ccc(-c3cccc(N)n3)c3ccccc13)CC2 = 172 to 176 °C
Nc1cccc(-c2ccc(OC3CCCCC3N)c3ccccc23)n1 (stereo not shown) (as salt: hydrochloride) = 218 to 230 °C
Nc1cccc(-c2ccc(CCNCc3ccc(Cl)c(Cl)c3)c3ccccc23)n1 (as salt: hydrochloride) = 145 to 170 °C
CC(C)N1CC(Oc2ccc(-c3cccc(N)n3)c3ccccc23)C1 (as salt: hydrochloride) = 120 to 135 °C
Nc1cccc(-c2ccc(OC3CCNCC3)c3ccccc23)n1 (as salt: hydrochloride) = 65 to 75 °C
CC(C)CN1CC(Oc2ccc(-c3cccc(N)n3)c3ccccc23)C1 (as salt: hydrochloride) = 133 to 148 °C
Nc1cccc(-c2ccc(OCC3CNC3)c3ccccc23)n1 (as salt: hydrochloride) = 88 to 110 °C
CN(C)CCCCOc1ccc(-c2cccc(N)n2)c2ccccc12 (as salt: hydrochloride) = 78 to 90 °C
CC(C)CN1CCC(Oc2ccc(-c3cccc(N)n3)c3ccccc23)CC1 (as salt: hydrochloride) = 198 to 210 °C

* * *

Counter-ions that a name gives are not always drawn.
melting point values by entry
experimental-readout: melting point

Nc1cccc(-c2ccc(OCCN3CCN(CCc4ccccc4)CC3)c3c2CCC3)n1 (as salt: hydrochloride) [Example 61] = 105 to 130 °C
CN(CCOc1ccc(-c2cccc(N)n2)c2c1CCCC2)C(C)(C)C (as salt: hydrochloride) [Example 39] = 65 to 90 °C
Nc1cccc(-c2ccc(CCNCc3ccc(F)c(F)c3)c3ccccc23)n1 (as salt: hydrochloride) [Example 7] = 70 to 80 °C
Nc1cccc(-c2ccc(CCNCc3cccc(Cl)c3)c3ccccc23)n1 (as salt: hydrochloride) [Example 9] = 60 to 75 °C

* * *

Where a name gives a salt, the structure may show the parent alone.
experimental-readout: melting point

Nc1cccc(-c2ccc(OCCNCc3ccc4c(c3)OCO4)c3ccccc23)n1 (as salt: hydrochloride) [Example 14] = 60 to 80 °C
Nc1cccc(-c2ccc(OC3CCN(Cc4ccco4)C3)c3ccccc23)n1 (stereo not shown) (as salt: hydrochloride) [Example 32] = 140 to 160 °C
Nc1cccc(-c2ccc(OCC3CCN3)c3ccccc23)n1 (stereo not shown) (as salt: salt) [Example 71] = 135 to 150 °C
Nc1cccc(-c2ccc(OC3CN(Cc4ccco4)C3)c3ccccc23)n1 (as salt: hydrochloride) [Example 67] = 75 to 90 °C
Nc1cccc(-c2ccc(OCCN3CCN(CCc4ccccc4)CC3)c3ccccc23)n1 (as salt: hydrochloride) [Example 17] = 45 to 80 °C
COc1ccc2[nH]c3c(c2c1)CCN(CCc1ccc(-c2cccc(N)n2)c2ccccc12)C3 = 132 to 138 °C
Nc1cccc(-c2ccc(OC3CCN(Cc4ccccc4)C3)c3ccccc23)n1 (stereo not shown) (as salt: hydrochloride) [Example 25] = 160 to 170 °C
